Exercise: state measured inhibition at 50 µM for each of the molecules provided.
Test system: Plasmodium berghei (Pb-Luc) exoerythrocytic-stage parasites
Assay: microbe, parasite or virus in culture
Conditions: read-out: Inhibition% @ 50 uM rep2
Numbers only, in %.

Some molecules with recorded inhibition at 50 µM:
# molecule, systemTested, measuredAttribute, unitDescriptor, reportedValue
records = [
    ("CCOc1ccc(C=Cc2nc(=O)c3ccccc3o2)cc1", "Plasmodium berghei (Pb-Luc) exoerythrocytic-stage parasites", "inhibition at 50 µM", "%", 101),
    ("Oc1c(CN2CCN(c3ccccc3F)CC2)cc(Br)c2cccnc12", "Plasmodium berghei (Pb-Luc) exoerythrocytic-stage parasites", "inhibition at 50 µM", "%", 101),
    ("O=C(Nc1ccc(F)c(Cl)c1)Nc1ccc(Cl)c(Cl)c1", "Plasmodium berghei (Pb-Luc) exoerythrocytic-stage parasites", "inhibition at 50 µM", "%", 102),
]

Please go through the list and note inhibition at 50 µM for each molecule.
1. CC1CC(C)CN(C(=O)c2ccc(Cl)cc2Cl)C1 (centres unmarked)
2. Cc1cc(NC(=O)C2c3ccccc3C(=O)N(CC(C)C)C2c2cccs2)no1 (centres unmarked)

1: 98; 2: 104

###

Tested on: Plasmodium berghei (Pb-Luc) exoerythrocytic-stage parasites
Conditions: first series of columns; concentration 0.123457; fraction of control
For each of the compounds below, state its normalized signal at concentration 0.123457.
One number for each entry.

Field: example entries. Status: answers known.
# compound, reportedValue
data = [
    ("COc1ccccc1NC(=O)N1C[C@@H]2N[C@H](C1)C2c1ccc(/C=C/c2ccccc2)cc1 (stereo partly shown)", 0.9808),
    ("C[C@@H]1CCCCO[C@H](CN(C)S(=O)(=O)c2ccc(F)cc2)[C@@H](C)CN([C@@H](C)CO)C(=O)c2cc(N(C)C)ccc2O1", 0.9867),
    ("C[C@@H]1CN([C@@H](C)CO)C(=O)c2ccccc2-c2ccccc2CO[C@@H]1CN(C)S(=O)(=O)Cc1ccccc1", 1.014),
]

Okay, now this compound:
Indicate its recorded normalized signal at concentration 0.123457; the compound in question is `CC(C)NC(=O)NCC[C@@H]1CC[C@H](NS(=O)(=O)c2ccc(Oc3ccccc3)cc2)[C@@H](CO)O1`
0.9757

###

Test system: Plasmodium berghei (Pb-Luc) exoerythrocytic-stage parasites
Test: microbe, parasite or virus in culture
Conditions: read-out: Inhibition% @ 50 uM rep2
Answer each item with its documented inhibition at 50 µM.
Answers are plain numbers, in %.

Sample answers from the record:
# compound, measuredAttribute, unitDescriptor, reportedValue
records = [
    ("CC(=O)c1ccc(NC(=O)CSc2nc(-c3ccccc3Cl)ns2)cc1 [MMV666124]", "inhibition at 50 µM", "%", 104),
    ("CN(C)CCCNCc1ccc(-c2ccc(F)c(Cl)c2)o1 [MMV020505]", "inhibition at 50 µM", "%", 98),
    ("O=C(CCc1ccco1)NC1CCN(CC2(c3ccc(Cl)cc3)CCC2)CC1 [MMV666108]", "inhibition at 50 µM", "%", 102),
    ("Cc1ccc(S(=O)(=O)c2c(COC(=O)c3cccc(C)c3)c(-c3ccccc3)nn2C)cc1 [MMV665936]", "inhibition at 50 µM", "%", 103),
    ("c1ccc(C2=Nc3ccccc3N=C(c3ccccc3)c3ccccc32)cc1 [MMV007113]", "inhibition at 50 µM", "%", 95),
    ("O=C(Cc1ccccc1)NC(c1ccc(Cl)cc1)c1c(O)ccc2ccccc12 (stereo not drawn) [MMV665972]", "inhibition at 50 µM", "%", 101),
]

Required: inhibition at 50 µM, one value per compound below.
1. COc1ccc(NC(=O)C2c3ccccc3C(=O)N(CC(C)C)C2c2cccs2)cc1Cl (stereo not drawn) [MMV000642]
2. Cc1c(C)n(Cc2ccc(F)cc2)c2ccc(C(=O)NCc3ccco3)cc12 [MMV008149]
3. COc1cccc(O)c1CN1CCC2(CCCN(Cc3ccc(F)cc3)C2)C1 (stereo not drawn) [MMV666061]
4. COc1ccc(C(=O)NC(c2ccc(Cl)cc2Cl)c2cc(Cl)c3cccnc3c2O)cc1 (stereo not drawn) [MMV666054]

1. 106
2. 102
3. 103
4. 102

Return reported inhibition at 50 µM values for all items listed beneath this line.
1. CN(C)c1ccc(N=Cc2ccc(N3CCOCC3)cc2)cc1 [MMV073843]
2. CC1CCN(Cc2ccc(NC(=O)c3cc4ccc5cccnc5c4[nH]3)cc2)CC1 [MMV020549]
3. COC(=O)c1ccc(Cl)c2c1C1C=CCC1C(c1cccc3ccccc13)N2 (stereo not drawn) [MMV667489]
4. CCC(c1ccccc1)c1nn2c(-c3cccs3)nnc2s1 (stereo not drawn) [MMV665876]
5. Cc1ccc(-c2cc(C(=O)Nc3ccc(S(=O)(=O)N4CCCCC4)cc3)[nH]n2)c(O)c1 [MMV665906]
6. CCC(=O)Nc1nnc(Cc2ccc(OC)c(OC)c2)s1 [MMV020942]
7. O=C1c2ccccc2-c2nnc(-c3ccc(Br)cc3)cc21 [MMV665934]

1: 83; 2: 106; 3: 99; 4: 103; 5: 30; 6: -37; 7: 29
